Target: HIV-1 pseudovirus X1193_c1 (HIV-1)
Test: cell-based or functional assay
experimental readout: IC80 (neutralization in TZM.bl cells) (µg/mL)
One number for each entry, in µg/mL.

[
  {
    "binder": "MS-77 (antibody, V domains shown) VH: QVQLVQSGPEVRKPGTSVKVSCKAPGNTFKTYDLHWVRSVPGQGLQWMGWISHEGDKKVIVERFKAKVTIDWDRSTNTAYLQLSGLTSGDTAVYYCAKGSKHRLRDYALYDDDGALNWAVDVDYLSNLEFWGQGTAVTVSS VL: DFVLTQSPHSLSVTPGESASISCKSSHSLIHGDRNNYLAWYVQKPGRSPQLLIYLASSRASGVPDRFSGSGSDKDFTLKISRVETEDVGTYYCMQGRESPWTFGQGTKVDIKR",
    "measurement unit": "µg/mL",
    "readout number": 0.398
  }
]

Batch: IC80 (neutralization in TZM.bl cells) for all items listed.
1. MS-92 (antibody, V domains shown) VH: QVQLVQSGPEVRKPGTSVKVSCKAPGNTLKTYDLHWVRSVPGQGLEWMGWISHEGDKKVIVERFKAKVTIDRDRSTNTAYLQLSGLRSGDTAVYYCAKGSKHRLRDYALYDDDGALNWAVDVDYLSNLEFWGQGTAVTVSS VL: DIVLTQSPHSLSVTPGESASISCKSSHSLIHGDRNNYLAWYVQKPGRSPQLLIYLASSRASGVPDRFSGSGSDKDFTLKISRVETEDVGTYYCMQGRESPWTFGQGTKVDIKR
2. MS-78 (antibody, V domains shown) VH: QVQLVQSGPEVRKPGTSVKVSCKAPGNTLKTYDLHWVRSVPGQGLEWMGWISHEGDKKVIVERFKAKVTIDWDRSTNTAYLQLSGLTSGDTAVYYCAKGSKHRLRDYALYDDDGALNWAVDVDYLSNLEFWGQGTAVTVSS VL: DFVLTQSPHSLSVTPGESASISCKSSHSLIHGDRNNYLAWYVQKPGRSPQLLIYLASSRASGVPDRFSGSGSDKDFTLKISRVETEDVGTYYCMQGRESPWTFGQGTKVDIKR

result:
0.529
0.452

The reported numbers originate from patent US20220025021A1.
